For each record, write down the corresponding Dh (nm).
PROTOCOL DETAILS: DLS size of dendrimersomes assembled from glycerol-JDs in water at different concentrations
Type: physicochemical
APPLIED CONDITIONS: JD 0.025 mg·mL−1 in water; size distribution by intensity
One number for each entry, in nm.

Example entries begin here.
COMPOUND | ASSAY METRIC | MEASUREMENT
CCCCCCCCCCCCOc1cc(OCCCCCCCCCCCC)cc(C(=O)OCC(C)(COC(=O)c2cc(OCCCCCCCCCCCC)cc(OCCCCCCCCCCCC)c2)C(=O)OC[C@@H](COC(=O)c2cc(OCCOCCOCCOC)c(OCCOCCOCCOC)c(OCCOCCOCCOC)c2)OC(=O)c2cc(OCCOCCOCCOC)c(OCCOCCOCCOC)c(OCCOCCOCCOC)c2)c1 [Compound 2R, (3,5)-12G1-BMPA-GC-(R)-(3,4,5)-3EO-G1] | Dh (nm) | 107
CCCCCCCCCCCCOc1cc(OCCCCCCCCCCCC)cc(C(=O)OCC(C)(COC(=O)c2cc(OCCCCCCCCCCCC)cc(OCCCCCCCCCCCC)c2)C(=O)OC[C@H](COC(=O)c2cc(OCCOCCOCCOC)c(OCCOCCOCCOC)c(OCCOCCOCCOC)c2)OC(=O)c2cc(OCCOCCOCCOC)c(OCCOCCOCCOC)c(OCCOCCOCCOC)c2)c1 [Compound 2S, (3,5)-12G1-BMPA-GC-(S)-(3,4,5)-3EO-G1] | Dh (nm) | 106
CCCCCCCCCCCCOc1cc(OCCCCCCCCCCCC)cc(C(=O)OC[C@H](COC(=O)C(C)(COC(=O)c2cc(OCCOCCOCCOC)c(OCCOCCOCCOC)c(OCCOCCOCCOC)c2)COC(=O)c2cc(OCCOCCOCCOC)c(OCCOCCOCCOC)c(OCCOCCOCCOC)c2)OC(=O)c2cc(OCCCCCCCCCCCC)cc(OCCCCCCCCCCCC)c2)c1 [Compound 1R, (3,5)-12G1-GC-(R)-BMPA-(3,4,5)-3EO-G1] | Dh (nm) | 82
CCCCCCCCCCCCOc1cc(OCCCCCCCCCCCC)cc(C(=O)OC[C@@H](COC(=O)C(C)(COC(=O)c2cc(OCCOCCOCCOC)c(OCCOCCOCCOC)c(OCCOCCOCCOC)c2)COC(=O)c2cc(OCCOCCOCCOC)c(OCCOCCOCCOC)c(OCCOCCOCCOC)c2)OC(=O)c2cc(OCCCCCCCCCCCC)cc(OCCCCCCCCCCCC)c2)c1 [Compound 1S, (3,5)-12G1-GC-(S)-BMPA-(3,4,5)-3EO-G1] | Dh (nm) | 80
CCCCCCCCCCCCOc1cc(OCCCCCCCCCCCC)cc(C(=O)OCC(C)(COC(=O)c2cc(OCCCCCCCCCCCC)cc(OCCCCCCCCCCCC)c2)C(=O)OC(COC(=O)c2cc(OCCOCCOCCOC)c(OCCOCCOCCOC)c(OCCOCCOCCOC)c2)COC(=O)c2cc(OCCOCCOCCOC)c(OCCOCCOCCOC)c(OCCOCCOCCOC)c2)c1 [Compound 4] | Dh (nm) | 100

List Dh (nm) for every entry below, keeping the order given.
1. CCCCCCCCCCCCOc1cc(OCCCCCCCCCCCC)cc(C(=O)OCC(COC(=O)c2cc(OCCCCCCCCCCCC)cc(OCCCCCCCCCCCC)c2)OC(=O)C(C)(COC(=O)c2cc(OCCOCCOCCOC)c(OCCOCCOCCOC)c(OCCOCCOCCOC)c2)COC(=O)c2cc(OCCOCCOCCOC)c(OCCOCCOCCOC)c(OCCOCCOCCOC)c2)c1 [Compound 3]
2. CCCCCCCCCCCCOc1cc(OCCCCCCCCCCCC)cc(C(=O)OCC(COC(=O)C(C)(COC(=O)c2cc(OCCOCCOCCOC)c(OCCOCCOCCOC)c(OCCOCCOCCOC)c2)COC(=O)c2cc(OCCOCCOCCOC)c(OCCOCCOCCOC)c(OCCOCCOCCOC)c2)OC(=O)c2cc(OCCCCCCCCCCCC)cc(OCCCCCCCCCCCC)c2)c1 (racemic) [Compound 1rac, (3,5)-12G1-GC-(rac)-BMPA-(3,4,5)-3EO-G1]

stdout:
[72, 86]

----------
PROTOCOL DETAILS: Stability of DNPs by DLS after storage at 5° C.
Type: physicochemical
APPLIED CONDITIONS: DNPs: IAJD 4.0 mg/mL + Luc-mRNA 0.1 mg/mL, injection in acetate buffer pH 4.00
Please go through the items and note down their pH Sample.
Give bare numbers.

Hi there! I need pH Sample for each item below, if you can.
1. CCCCCCCCCCCCCCOc1cc(COC(=O)c2cc(OCCOCCOCCCC(=O)CCCN3CCCCC3)c(OCCOCCOCCOCc3ccccc3)c(OCCOCCOCCOC(=O)CCCN3CCCCC3)c2)cc(OCCCCCCCCCCC)c1
2. CCCCCCCCCCCOc1cc(COC(=O)CCCN2CCN(CCO)CC2)cc(OCCCCCCCCC)c1
3. CCCCCCCCCCCCCCCCCOc1cc(CNC(=O)c2cc(OCCOCCOCCOC(=O)CCCN3CCCCC3)c(OCCCOCOCCOCc3ccccc3)c(OCCOCCOCCOC(=O)CCCN3CCCCC3)c2)cc(OCCCCCCCCCCCCCCCCC)c1

stdout:
1. 4.82
2. 4.49
3. 4.72

----------
PROTOCOL DETAILS: Stability of DNPs by DLS after storage at 5° C.
Assay type: physicochemical
APPLIED CONDITIONS: after 21 days at 5° C.; IAJD 4.0 mg/mL + Luc-mRNA 0.1 mg/mL, acetate buffer
# label = Y if PDI >= 0.3 else N

COMPOUND | CAT
CCCCCCCCCCCCCOc1cc(COC(=O)CCCN2CCN(CCO)CC2)cc(OCC(CC)CCCC)c1 (stereo not drawn) | N
CCCCCCCCCCCCCCCCCCOc1cc(COC(=O)CCCN2CCN(CCO)CC2)cc(OCCCCCCCCCCCCC)c1 | N
CCCCCCCCCCCCCCCCCCOc1cc(COC(=O)CCCN2CCN(C)CC2)cc(OCCCCCCCCCCCCC)c1 | N
CCCCCCCCCCCCCCOc1cc(COC(=O)CCCN2CCN(C)CC2)cc(OCCCCCCCCCCCCC)c1 | N
CCCCCCCCCCCCCOc1cc(COC(=O)CCCN2CCN(C)CC2)cc(OCC(CC)CCCC)c1 (stereo not drawn) | N

# evaluate next
stdin: Would you say CCCCCCCCCCCCCCCCOc1cc(COC(=O)CCCN2CCN(C)CC2)cc(OCCCCCCCCCCCCC)c1 shows PDI at minimum 0.3?
stdout: Y

----------
Tested on: HEK293T cells
PROTOCOL DETAILS: In vitro Luc-mRNA transfection, luciferase luminescence expression in HEK293T cells
Format: cell-based, human
Design: unit not given here
APPLIED CONDITIONS: Table 16; HEK 293T cells, 125 ng/well, n=3
ASSAY METRIC: Luminescence

Illustrative cases are given below, each with its answer.
COMPOUND STRUCTURE | Luminescence
CCCCCCCCCCCCCCOc1cc(COC(=O)c2cc(OCCOCCOCCCC(=O)CCCN3CCCCC3)c(OCCOCCOCCOCc3ccccc3)c(OCCOCCOCCOC(=O)CCCN3CCCCC3)c2)cc(OCCCCCCCCCCC)c1 | 59
CCCCCCCCCCCCCCOc1cc(CNC(=O)CCCN2CCN(C)CC2)cc(OCCCCCCCCCCC)c1 | 107,307
CCCCCCCCCCCOc1cc(COC(=O)CCCN2CCN(CCO)CC2)cc(OCCCCCCCC)c1 | 78,118
CCCCCCCCCCCCCCCOc1cc(COC(=O)c2cc(OCCOCCOCCCC(=O)CCCN3CCCCC3)c(OCCOCCOCCOCc3ccccc3)c(OCCOCCOCCOC(=O)CCCN3CCCCC3)c2)cc(OCCCCCCCCCCC)c1 | 47
CCCCCCCCCCCCCOc1cc(COC(=O)CCCN2CCN(CCO)CC2)cc(OCCCCCCCCCCC)c1 | 516,522

Here's the next entry for you.
stdin: Give the measured Luminescence of CCCCCCCCCCCOc1cc(COC(=O)CCCN2CCN(C)CC2)cc(OCCCCCCCCCC)c1 .
stdout: 1,580

----------
PROTOCOL DETAILS: Dimensions (size, PDI) of DNPs co-assembled from IAJDs and Luc-mRNA by DLS
Type: physicochemical
APPLIED CONDITIONS: Table 12; DNPs, IAJD 4 mg/mL + Luc-mRNA 0.10 mg/mL, acetate buffer 10 mM pH 4.0
Give measured PDI for each item. Keep answers brief.
Numbers only.

MOLECULE | ASSAY METRIC | MEASUREMENT
CCCCC(CC)COc1ccc(COC(=O)CCCN2CCN(C)CC2)cc1OCC(CC)CCCC (centres unmarked) | PDI | 0.275
CCCCCCCCCCCCCCCCOc1cc(COC(=O)CCCN2CCN(C)CC2)cc(OCCCCCCCCCCCCCCCC)c1 | PDI | 0.328

# return PDI for each item in the list
1. CCCCC(CC)COc1cc(COC(=O)CCCN2CCN(CCO)CC2)cc(OCC(CC)CCCC)c1 (centres unmarked)
2. CCCCC(CC)COC(=O)CCCCOc1cc(COC(=O)CCCN2CCN(CCO)CC2)cc(OCCCCC(=O)OCC(CC)CCCC)c1 (centres unmarked)
3. CCCCCCCCCCOc1cc(COC(=O)CCCN2CCN(CCO)CC2)cc(OCCCCCCCCCC)c1
4. CCCCCCCCCCCCCCCCCCOc1cc(COC(=O)CCCN2CCN(C)CC2)cc(OCCCCCCCCCCCCCCCCCC)c1
5. CCCCCCCCCCCCOc1cc(COC(=O)CCN2CCN(C)CC2)cc(OCCCCCCCCCCCC)c1

stdout:
[0.486, 0.352, 0.498, 0.221, 0.303]

stdin: For CCCCCCCCCCCCCCCCCCOc1cc(COC(=O)CCCN2CCN(C)CC2)cc(OCCCCCCCCCCC)c1 , what is its reported PDI?
stdout: 0.287
